Measured values drawn from patent US12421225B2 for this set.

Molecular target: UniProt:Q14524
Sequence (Q14524 whole entry): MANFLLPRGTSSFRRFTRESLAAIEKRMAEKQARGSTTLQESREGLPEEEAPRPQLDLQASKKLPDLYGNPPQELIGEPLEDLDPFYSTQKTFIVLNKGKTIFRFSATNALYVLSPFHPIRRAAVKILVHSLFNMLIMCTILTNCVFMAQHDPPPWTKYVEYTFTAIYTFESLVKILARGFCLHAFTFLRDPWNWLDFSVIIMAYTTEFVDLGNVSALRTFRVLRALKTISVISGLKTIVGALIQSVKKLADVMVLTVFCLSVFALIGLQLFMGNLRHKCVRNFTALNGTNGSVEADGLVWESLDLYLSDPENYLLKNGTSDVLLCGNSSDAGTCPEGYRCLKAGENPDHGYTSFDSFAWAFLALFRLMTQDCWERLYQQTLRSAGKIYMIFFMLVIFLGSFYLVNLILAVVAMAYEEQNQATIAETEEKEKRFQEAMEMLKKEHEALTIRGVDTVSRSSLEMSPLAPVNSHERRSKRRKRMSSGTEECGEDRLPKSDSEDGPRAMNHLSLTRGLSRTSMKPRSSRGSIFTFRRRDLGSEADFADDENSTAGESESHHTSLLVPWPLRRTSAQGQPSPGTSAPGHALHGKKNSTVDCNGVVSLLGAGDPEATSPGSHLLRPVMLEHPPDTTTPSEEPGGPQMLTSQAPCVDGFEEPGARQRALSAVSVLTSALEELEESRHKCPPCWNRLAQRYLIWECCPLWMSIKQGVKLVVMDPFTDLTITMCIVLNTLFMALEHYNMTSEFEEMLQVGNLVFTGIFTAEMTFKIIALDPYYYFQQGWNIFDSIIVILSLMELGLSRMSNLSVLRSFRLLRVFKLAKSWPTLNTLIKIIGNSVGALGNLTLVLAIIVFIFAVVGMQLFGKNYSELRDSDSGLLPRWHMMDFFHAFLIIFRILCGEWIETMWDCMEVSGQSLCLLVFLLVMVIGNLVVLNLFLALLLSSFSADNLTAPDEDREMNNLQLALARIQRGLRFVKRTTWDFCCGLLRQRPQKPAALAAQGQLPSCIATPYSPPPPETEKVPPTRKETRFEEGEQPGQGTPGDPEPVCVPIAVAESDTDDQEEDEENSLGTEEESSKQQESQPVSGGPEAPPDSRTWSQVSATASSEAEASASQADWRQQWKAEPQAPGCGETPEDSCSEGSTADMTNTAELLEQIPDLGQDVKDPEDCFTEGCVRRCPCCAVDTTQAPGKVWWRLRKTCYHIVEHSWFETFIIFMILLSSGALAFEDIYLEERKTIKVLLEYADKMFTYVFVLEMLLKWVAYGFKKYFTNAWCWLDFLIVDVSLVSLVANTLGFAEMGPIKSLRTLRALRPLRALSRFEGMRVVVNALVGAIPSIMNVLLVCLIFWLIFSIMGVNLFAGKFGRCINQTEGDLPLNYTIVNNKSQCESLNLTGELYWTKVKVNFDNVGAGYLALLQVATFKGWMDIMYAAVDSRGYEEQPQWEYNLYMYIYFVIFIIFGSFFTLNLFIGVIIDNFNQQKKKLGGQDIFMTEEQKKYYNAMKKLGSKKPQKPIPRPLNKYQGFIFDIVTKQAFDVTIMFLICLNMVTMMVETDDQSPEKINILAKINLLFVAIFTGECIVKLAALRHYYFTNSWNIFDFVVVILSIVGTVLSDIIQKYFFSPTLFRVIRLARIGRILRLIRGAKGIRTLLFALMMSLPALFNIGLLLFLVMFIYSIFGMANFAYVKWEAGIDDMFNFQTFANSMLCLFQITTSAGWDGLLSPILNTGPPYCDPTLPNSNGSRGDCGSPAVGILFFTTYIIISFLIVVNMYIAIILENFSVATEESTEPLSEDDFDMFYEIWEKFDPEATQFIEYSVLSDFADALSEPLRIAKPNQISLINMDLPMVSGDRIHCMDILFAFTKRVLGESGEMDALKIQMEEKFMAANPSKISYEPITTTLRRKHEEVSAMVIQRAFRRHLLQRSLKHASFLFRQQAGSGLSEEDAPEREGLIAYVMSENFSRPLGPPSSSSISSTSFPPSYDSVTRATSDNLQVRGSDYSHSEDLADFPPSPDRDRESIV
Experiment: Human Nav1.5 inhibitory activity evaluation (automated patch clamp QPatch16X, HEK293 cells stably expressing human Nav1.5)
Format: cell-based
Conditions: human Nav1.5, automated patch clamp
readout: IC50

Worked examples follow.
* COc1ncc(-c2ccc3c(c2)C[C@@H](NC(=O)c2cc4n(n2)CC(COCC2CC2)O4)CO3)cn1 (stereo partly shown) | ≥ 3000 nM
* O=C(N[C@H]1COc2ccc(CCOC(F)F)cc2C1)c1cc2n(n1)CC(COCC(F)(F)F)O2 (single isomer, unassigned) [190 (isomer A)] | ≥ 3000 nM
* N#Cc1ccc2c(c1)C[C@@H](NC(=O)c1cc3n(n1)CCN(CCC1CC1)C3)CO2 | ≥ 3000 nM

stdin: Item under review: N#Cc1cccc2c1CC(NC(=O)c1cn3c(n1)CCC(C(F)(F)F)C3)CO2 (stereo not shown) . Reported IC50?
stdout: ≥ 3000 nM

stdin: May I ask what IC50 has been recorded for O=C(N[C@H]1COc2ccc(Cl)cc2C1)c1cc2n(n1)CCN(CCC1CC1)C2 ?
stdout: 1000 to 3000 nM

stdin: I would be grateful if you could share the reported IC50 for O=C(N[C@H]1COc2ccccc2C1)c1cc2n(n1)CCN(C(=O)Cc1ccccc1)C2 .
stdout: ≥ 3000 nM

stdin: Form field: reported IC50 of N#Cc1ccc2c(c1)C[C@@H](NC(=O)c1cc3n(n1)CC(CCCOCC(F)(F)F)O3)CO2 (stereo partly shown) [Example 245]
stdout: 1000 to 3000 nM
